assay: NCI Yeast Anticancer Drug Screen. Data for the mlh1 rad18 strain (AID 175); conditions: S. cerevisiae mlh1 rad18 strain growth inhibition; at 50.0 µM (retest, dose inferred, filed as 5.0); active compounds read high
Compounds without any hit were thinned out: in the full panel of roughly 79,000, 15% have a hit.
Provide the recorded growth inhibition for the entries that follow.
Give bare numbers, in %.

# batch size: 4; output growth inhibition per entry
1. O=C(Oc1ccc([N+](=O)[O-])cc1)c1ccc([N+](=O)[O-])cc1
2. O=C(Cc1ccccc1)NNc1nc(NNC(=O)c2ccncc2)nc(Nc2ccc(Cl)cc2)n1
3. OC(c1ccccc1)(c1ccccc1)c1nccc2ccccc12
4. c1ccc(-c2cc(C3CO3)c3ccccc3n2)cc1 (configuration not stated)

Response given:
1: 83; 2: 14; 3: 74; 4: 69

# per-item lookup of growth inhibition; items listed below
1. COc1ccc(C(OCC2OC(n3cnc4c(=O)n(Cc5ccccc5[N+](=O)[O-])nnc43)C(O)C2O)(c2ccccc2)c2ccc(OC)cc2)cc1 (configuration not stated)
2. CCC[CH2][Ge]([CH2]CCC)([CH2]CCC)[O]C(=O)C(O)c1ccccc1 (configuration not stated)
3. CCC(C)(C)c1ccc(Oc2ccccc2)c(N)c1
4. c1ccc2c(c1)N=C1CCCC3CCCC123 (configuration not stated)
5. CCOP(=O)(OCC)/C(C#N)=C\c1cccc2ccccc12

Response given:
1. 23
2. 84
3. 45
4. 12
5. 95

Below are 6 compounds. Give each one its growth inhibition.
1. COc1cc2oc3ccccc3c(=O)c2cc1CSc1ccccc1N
2. CC1=COC2=C(C)C(=O)C(=O)c3c(C)ccc1c32
3. COC(=O)C(=O)c1c(-c2ccc(Cl)c(Cl)c2)[nH]c2[nH]n(-c3ccccc3)c(=O)c2c1=O
4. O=C1c2ccccc2-c2cc3ccccc3c(=O)n21
5. O=C(NO)c1coc2ccccc2c1=O
6. Fc1cc(F)c(F)c(S)c1F

Response given:
[31, 71, 80, 63, 10, 99]
